# credit: the supplement of paper PMC11417369

gcPBM binding intensity (ln) by entry:
system: PfHDP1 homeodomain (GST-tagged); test: gcPBM binding intensity (ln(normalized median fluorescence intensity)); higher = stronger DNA binding
In all, about 25,000 sequences were measured (“ln(normalized median fluorescence intensity)”: median about 6.7, highest 2% from about 10 on). The sample holds the highest values, similar sequences and a random draw of the others, so the mix is not that of the screen.
# respond with the number and nothing more

[in] Please report the recorded gcPBM binding intensity (ln) for ATCTAAATTTTTCCATGTACATATACTTTTATGCAT [XGTACX_site2683] .
[out] 7.08

[in] Please report the recorded gcPBM binding intensity (ln) for AATAATAAAAAATATACACACATATATAAATAAATA [CACACA_site6164] .
[out] 6.35

[in] Please report the recorded gcPBM binding intensity (ln) for TATTCAACATAATATGCACACAAAAATTATGGAACG [CACACA_site8660] .
[out] 9.99

[in] Please report the recorded gcPBM binding intensity (ln) for ATATTATTTTATGCTACACACATTTTCTCTTATAAA [CACACA_site943] .
[out] 7.25

[in] Please report the recorded gcPBM binding intensity (ln) for AAAAAAAAAAAAAGCACACACACATATGCGTATATA [CACACA_site953] .
[out] 6.43

[in] Please report the recorded gcPBM binding intensity (ln) for TAAAATATATAAAACTGTACATTTTAAAGGCACAAC [XGTACX_site8342] .
[out] 7.1

[in] Please report the recorded gcPBM binding intensity (ln) for AAAATATTTTAATGTTGTACATTAATATATTATATA [XGTACX_site2513] .
[out] 6.03

[in] Please report the recorded gcPBM binding intensity (ln) for TGTTGTAAATTAAAGACATGCACGTGAGAAAATATA [TGCATGCA_site285] .
[out] 11

[in] Please report the recorded gcPBM binding intensity (ln) for GCTTGTACATTTTTAAAAAATGACTTCGAAAGGAAT [CACACA_negctrl_site453] .
[out] 7.01

[in] Please report the recorded gcPBM binding intensity (ln) for ATAATATATTATTATAGTACTTTATTTTATTTTATG [XGTACX_site2387] .
[out] 6.65

###

test system: PfHDP1 homeodomain (GST-tagged); assay: gcPBM binding intensity (ln(normalized median fluorescence intensity)); higher = stronger DNA binding
In all, about 25,000 sequences were measured (“ln(normalized median fluorescence intensity)”: median about 6.7, highest 2% from about 10 on). This is one part of a sample in which the highest values are shown more often than they occur.
gcPBM binding intensity (ln) by entry:
# respond with the number and nothing more

[in] Please report the recorded gcPBM binding intensity (ln) for ATACATATATAATTATGTACGTATATTTTATATAAC [XGTACX_site4292] .
[out] 6.14

[in] Please report the recorded gcPBM binding intensity (ln) for AAAATTATAAATCTTGCACACAAAAAAAATAATAAA [CACACA_site8771] .
[out] 8.27

[in] Please report the recorded gcPBM binding intensity (ln) for TTCCTTTGTCCTAACTGTACTCAAATTTATTAGTGG [XGTACX_site226] .
[out] 7.04

[in] Please report the recorded gcPBM binding intensity (ln) for ATATTTTACAAATGCACACATAATTTTTTTTTTTTT [CACACA_site2763] .
[out] 10.5

[in] Please report the recorded gcPBM binding intensity (ln) for CGAAATAAATCTTATGCACACAAATAATTAATTAAA [CACACA_site8491] .
[out] 10.5

[in] Please report the recorded gcPBM binding intensity (ln) for TATTACACATATTATGTGCACATATATAATCAATAT .
[out] 10.9

[in] Please report the recorded gcPBM binding intensity (ln) for TAAAGAAACTATTCAACACACGGTCTAATTATTACA [CACACA_site1064] .
[out] 6.15

[in] Please report the recorded gcPBM binding intensity (ln) for TACTTATTATGAAACACACACCAAAACTACAGAATA [CACACA_site6265] .
[out] 7.04

[in] Please report the recorded gcPBM binding intensity (ln) for GTATAATTATGTGCACGTACATATTTTATTATATAT [XGTACX_site8586] .
[out] 10.9

###

gcPBM binding intensity (ln) by entry:
system: PfHDP1 homeodomain (GST-tagged); assay: gcPBM binding intensity (ln(normalized median fluorescence intensity)); higher = stronger DNA binding
In all, about 25,000 sequences were measured (“ln(normalized median fluorescence intensity)”: median about 6.7, highest 2% from about 10 on). What follows is part of a selection rich in the highest values, with near analogues and random picks from the rest.
# respond with the number and nothing more

TTATATAAAGAATGTACACACAGAAATGCACCCACA [CACACA_site2282]: 9.38
TTTTATATTTTATGCACACTTATAAGAAATATGTAC [CACACA_site3040]: 10.6
GTAGACATTATAATGGTGCAAAAAAATTAACAAAAA [GTGCAC_site9891]: 10.6
TTTTGTTTAGTGTATTGTACAATATATCTTTATTTT [XGTACX_site5163]: 6.52
ATTTATATAAAGAATGTACACACAGAAATGCACCCA [CACACA_site8715]: 10.7

For the next question, use this sequence.
[in] Please report the recorded gcPBM binding intensity (ln) for TGTAGACTACATAGTAGTACATAATATATACATATA [XGTACX_site367] .
[out] 6.21

###

tested on: PfHDP1 homeodomain (GST-tagged); assay: gcPBM binding intensity (ln(normalized median fluorescence intensity)); higher = stronger DNA binding
Whole data set: some 25,000 sequences, median “ln(normalized median fluorescence intensity)” near 6.7, cut for the highest 2% near 10. The sample as a whole holds a higher share of the highest values than the screen did.
gcPBM binding intensity (ln) by entry:
# respond with the number and nothing more

TTAAACTTGTTTTGGATGCACTATATAATTCATTTT [GTGCAC_site9549]: 7.2
AACGATATCTGTACTACACACATTATGTCATCCTAT [CACACA_site5374]: 6.81
ATATATATTTAAAAAAGTACAGAAGAAAATAACCCA [XGTACX_site642]: 7.19
TTTATTAAAATATTCTCACACACCAAAATATGTATG [CACACA_site932]: 6.42
TACTTAATTATAAGGACATGCACAAAAGGAATTATT [TGCATGCA_site468]: 8.01
TATAACCGAATGTGTACACAAAATAATGTTATATAT [CACACA_site5627]: 7.77

For the next question, use this sequence.
[in] Please report the recorded gcPBM binding intensity (ln) for TTTTTTTTTATTATCATGCACACATTTTTTTTTTTT [CACACA_site2254] .
[out] 9.1

###

tested on: PfHDP1 homeodomain (GST-tagged); test: gcPBM binding intensity (ln(normalized median fluorescence intensity)); higher = stronger DNA binding
The full ranking holds about 25,000 sequences; the median of “ln(normalized median fluorescence intensity)” is about 6.7, and the highest 2% start at about 10. This excerpt belongs to a sample that is enriched for the highest values.
Decide by gcPBM binding intensity (ln): equal to or exceeding 9 means satisfied, less means not satisfied.

These solved cases illustrate the format of a correct answer.
AAAGTAAAAAAAAAAACATGCACATATTTACTTTAT [TGCATGCA_site849]: not satisfied
ATTTATATTATAATATGTACACAAAAAAAATTAGGA [XGTACX_site565]: not satisfied
AATATATATATATGTGCACACATATATAATATGTAT [CACACA_site716]: satisfied
CATATTTATAAATATAAACACACAACATTATATGCA [CACACA_site9065]: not satisfied
ATTGAATATGTAAATGCACACCAAAAAAAAAAAAAA [CACACA_site9189]: satisfied
TATACATATGTATGCACACATACATACCCATATAAT [CACACA_site5842]: satisfied

[in] Decide: is the reported value of gcPBM binding intensity (ln) for TAATATAATATATGCACACAAATATGTATATATGTG [CACACA_site2134] equal to or greater than 9?
[out] satisfied

[in] Decide: is the reported value of gcPBM binding intensity (ln) for TGTGTTTATACGTTTTGTACATATTTTTATTTTGTA [XGTACX_site6425] equal to or greater than 9?
[out] not satisfied

[in] Decide: is the reported value of gcPBM binding intensity (ln) for GAAATTAAATGACATACACACTATATTATAGATTTT [CACACA_site7468] equal to or greater than 9?
[out] not satisfied

[in] Decide: is the reported value of gcPBM binding intensity (ln) for AAAAAATATACATATACACACATATGTATATATAAT [CACACA_site8676] equal to or greater than 9?
[out] not satisfied

[in] Decide: is the reported value of gcPBM binding intensity (ln) for GTATAAAAATTTAGGAGTACAATATATTTATAATAT [XGTACX_site2127] equal to or greater than 9?
[out] not satisfied

[in] Decide: is the reported value of gcPBM binding intensity (ln) for TATATGCCTATAAGAAGTACTGTGTAATGTAATATA [XGTACX_site8089] equal to or greater than 9?
[out] not satisfied

[in] Decide: is the reported value of gcPBM binding intensity (ln) for CCTCATCCACTATGCACACAAAAAAGAAATACACTA [CACACA_site3422] equal to or greater than 9?
[out] satisfied
